- System: KM12 colon
- assay.procedure: NCI-60 one-dose screen, 48 h
- assay.context: 10 µM unless noted
About 83,000 compounds went through this panel and 20% of them were active in at least one assay; those are over-represented in the sample as a whole. Activity calls are given as the source filed them. How the source made its calls: active means growth percent below 10; inactive means the rest.
Outcomes: true (1) = active, false (0) = inactive

# molecule, tested.on, category.label
data = [
    ("Cc1ncc(-c2ccnc(Nc3ccc(S(C)(=O)=O)cc3)n2)n1C(C)C", "KM12 colon", "true (1)"),
    ("COC(=O)Nc1nc2ccc(C(=O)c3ccc(N(C)C4COC4)cc3)cc2[nH]1", "KM12 colon", "false (0)"),
    ("Cc1oc2c(C(=O)N/N=C\\c3ccc(O)cc3O)c[nH]c2c1C", "KM12 colon", "false (0)"),
    ("CC(=O)OC(C(=O)c1ccccc1)c1ccccc1 (stereo unspecified)", "KM12 colon", "false (0)"),
    ("CN1CCN(CCCOc2cccc3nc(Nc4ccc(Cl)c(C(F)(F)F)c4)ccc23)CC1", "KM12 colon", "true (1)"),
    ("COc1cnc2c(c1)C(=O)c1c-2n(CCCN2CCC(O)CC2)c(=O)c2cc(Cl)ccc12", "KM12 colon", "false (0)"),
]

* * *

- System: SF-268 CNS
- assay.procedure: NCI-60 one-dose screen, 48 h (100 = growth as untreated, 0 = no growth, -100 = all killed)
- assay.context: 10 µM unless noted
About 83,000 compounds went through this panel and 20% of them were active in at least one assay; those are over-represented in the sample as a whole.
If the reported growth equals or exceeds 60%, assign Condition met. If not, assign Condition not met.

# compound, category.label
rows = [
    ("Cc1cccc(Cl)c1NC(=O)c1cnc(Nc2cc(N3CCOCC3)cc(S(C)(=O)=O)c2)s1", "Condition not met"),
    ("Cn1cnc(-c2cc3nccc(Oc4ccc(NC(=S)NC(=O)Cc5ccccc5)cc4F)c3s2)c1", "Condition met"),
    ("CCOc1cc2ncc(C#N)c(Nc3ccc(OCc4ccccn4)c(Cl)c3)c2cc1NC(=O)/C=C/CN(C)C", "Condition not met"),
    ("COC(=O)[C@H](Cc1ccc(O)cc1)NC(=O)[C@@H](OC)[C@@H]1Cc2cc3cc(OC4CC(OC5CC(O)C(O)C(C)O5)C(O)C(C)O4)c(C)c(O)c3c(O)c2C(=O)[C@H]1OC1CC(OC2CC(OC3CC(C)(O)C(O)C(C)O3)C(O)C(C)O2)C(O)C(C)O1 (stereo partly drawn)", "Condition not met"),
    ("N#Cc1c(NC(=O)c2ccco2)[n+]([O-])c2cc(F)c(F)cc2[n+]1[O-]", "Condition met"),
    ("CN(c1ncccc1CNc1nc(Nc2ccc3c(c2)CC(=O)N3)ncc1C(F)(F)F)S(C)(=O)=O", "Condition not met"),
    ("CNC(=O)c1cnc(C)nc1-c1cc(C(C)(C)C)c(O)c(C(C)(C)C)c1", "Condition met"),
    ("CCCc1cc2cc(-n3nc(C)c4c3CC(C)(C)CC4=O)cc(NC3CCC(O)CC3)c2c(=O)[nH]1 (stereo not drawn)", "Condition not met"),
    ("Cc1ccc(NC(=O)c2ccc(CN3CCN(C)CC3)cc2)cc1Nc1nc(-c2cccnc2)cs1", "Condition met"),
    ("C=CCC(=O)N[C@H](/C=C/C(=O)O)Cc1ccc(-c2cc(Cl)cc(Cl)c2)cc1", "Condition met"),
    ("COc1ccc(C2CC(=O)c3c(O)c(OC)c(OC)c(OC)c3O2)c(O)c1 (stereo not drawn)", "Condition not met"),
    ("CCCCCCCC(=O)SCC/C=C/[C@@H]1CC(=O)NCc2cccc(n2)C2=N[C@@](C)(CS2)C(=O)N[C@@H](C(C)C)C(=O)N1", "Condition not met"),
]
